This collection of values is drawn from PubChem BioAssay (NCI).

Catalogue of TGI values
System: SNB-75 CNS
test_description: NCI tumour cell line growth inhibition, 48 h
recorded_endpoint: TGI

- N#CC(CC(=O)O)=C(c1ccccc1)c1ccccc1: > 100 µM
- O=C(O)CCCN=C(C(=NCCCC(=O)O)c1ccccc1)c1ccccc1: > 100 µM
- COC(=O)C(=O)C(C(=O)C(=O)Nc1nc(=S)[nH][nH]1)c1nc2ccc([N+](=O)[O-])cc2[nH]c1=O (stereo not drawn): > 100 µM
- CNCC1CCn2c(c(C3=C(c4cn(C)c5ccccc45)C(=O)NC3=O)c3ccccc32)C1 (stereo not drawn): 4.66 µM
- Cc1cc2nc3c(C#N)c4c(c(Nc5ccc(Cl)cc5)n3c2cc1C)CCC4: > 100 µM
- CCCCCCC(=O)CC(=O)C(=O)Nc1ccccc1C: > 100 µM
- COC(=O)/C=C/N1CC1: > 10 µM
- CCN(CC)c1ccc2cc(-c3csc(-c4ccc(N(C)C)cc4)n3)c(=O)oc2c1: > 100 µM
- Cn1c2c(c3c(=O)[nH]ncc31)CCCc1ccccc1-2: > 100 µM
- COc1cccc(-c2cc(=O)c3cc(N4CCCC4)ccc3[nH]2)c1: > 10 µM
- COc1ccccc1NC1=NCC(C)S1 (stereo not drawn): > 100 µM
- Cc1ccc2nnc(NS(=O)(=O)c3cc(C)c(Cl)cc3S)n2n1: > 100 µM
- CC1=C(C(=O)NCc2ccccc2)C(c2ccccc2O)C(C(=O)NCc2ccccc2)=C(C)N1: > 71.3 µM
- COc1cc(OC)cc(Oc2nc3c(N)cc(C(F)(F)F)cc3nc2-c2ccccc2)c1: > 100 µM
- CC(=O)O[C@@H]1CN(S(=O)(=O)c2ccc(C)cc2)C[C@@H]1C1CCCCC1: 44.4 µM
- CSc1nc(Cl)c2c(n1)Sc1nc3ccccc3n1N=C2: 71.5 µM
- COc1ccc([Se]c2ccc(OC)cc2)cc1: 96.8 µM
- CCOC(=O)c1c(CN2CCOCC2)n(Cc2ccccc2)c2c1cc(O)c1nc(C)c(C)nc12: 32.7 µM
- CC(=O)CC(=O)ON(C)C(=O)Cc1ccccc1: > 100 µM
- O=C1C=C(OCC=C(Cl)Cl)C(=O)c2ccccc21: 56.9 µM
- CN1CCN(Cc2ccc(NC(=O)c3[nH]ncc3Nc3cc(OC4CCCC4)ncn3)cc2)CC1: 16.4 µM
- CCOc1cc[n+](C(=C=[N-])C#N)cc1: > 100 µM
- CC(=O)Oc1ccc2c3c1[C@@H]1O[C@@H]1c1cccc(c1-3)[C@@H]1O[C@H]21: 3.07 µM

----------
Test system: OVCAR-8 ovarian
test_description: NCI tumour cell line growth inhibition, 48 h
Catalogue of GI50 values
recorded_endpoint: GI50

* COC(=O)[C@]1(C)CC[C@]2(C)CC[C@]3(C)C(=CC(=O)[C@@H]4[C@@]5(C)CCC(=O)NC(C)(C)[C@@H]5CC[C@]43C)[C@@H]2C1 | 29.2 µM
* CC(=O)N1c2ccc(-c3ccc(C(=O)O)cc3)cc2[C@H](Nc2ccc(Cl)cc2)C[C@@H]1C | 2.52 µM
* CCC(=O)Oc1ccc(/C=N/NC(N)=S)nc1 | 3.51 µM

----------
System: MOLT-4 leukemia
test_description: NCI tumour cell line growth inhibition, 48 h
recorded_endpoint: TGI (µM)

• CCc1ncc(C(C)(O)c2ccccc2)n1Cc1ccccc1 (stereo unspecified) = 65.1
• COn1cc(C(=O)N=C(SC)SC)c2ccccc21 = 30.1
• CNCC1CCn2c(c(C3=C(c4cn(C)c5ccccc45)C(=O)NC3=O)c3ccccc32)C1 (stereo unspecified) = 8.74
• COc1ccc(NC(C)=O)cc1N1C(=O)/C(=C\c2cccc(Oc3ccccc3)c2)SC1c1ccccc1 (stereo unspecified) = 82.6
